- ASSAY TARGET: T1, myosin VI^998–1131 of the long isoform (myosin VI_(long)), cleaved from GST and purified (human, UniProt Q9UM54 998-1131)
- T1 construct: source: E. coli Rosetta (DE3), GST fusion cleaved with PreScission Protease, purified (ion exchange)
- T1 sequence (Q9UM54 998-1131): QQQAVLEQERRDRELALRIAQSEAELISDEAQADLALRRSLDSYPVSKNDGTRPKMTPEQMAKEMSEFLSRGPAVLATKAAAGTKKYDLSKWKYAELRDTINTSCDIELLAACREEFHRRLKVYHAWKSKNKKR
- ASSAY SUMMARY: fluorescence polarisation; 20–50 nM 5-FAM-conjugated CLCa peptide titrated with purified myosin VI fragment from ~150 µM, 22 °C, 384-well plate
- RUN CONDITIONS: both partners purified
Ends that are not written are not given here. * marks the point of attachment. 5FAM = O=C1OC2(c3ccc(O)cc3Oc3cc(O)ccc32)c2ccc(C(=O)*)cc21
MEASURED ATTRIBUTE: Kd

5FAM-IENDEAFAILDGGAPG (peptide, UniProt P09496 46-61, looked up, clathrin light chain A (CLCa), human, amino acids 46–61; also called CLCa^46–61; source: synthetic peptide (GenScript)) [5-carboxyfluorescein (5-FAM)-conjugated CLCa peptide 46–61]: 930 nM
